Data origin, for the record: patent US20260015350A1

Quick reference: inhibition at 0.01 µM of the listed items.
- SUBJECT_OF_TEST: KRas^G13D (Homo sapiens, UniProt P01116, G13D)
- Construct: Biotinylated KRas (corresponding to amino acids 1-169, produced at Accelegan Inc.); biotin (biotinylated); purchased Accelegan Inc
- Sequence (P01116 1-169 isoform P01116-2 G13D): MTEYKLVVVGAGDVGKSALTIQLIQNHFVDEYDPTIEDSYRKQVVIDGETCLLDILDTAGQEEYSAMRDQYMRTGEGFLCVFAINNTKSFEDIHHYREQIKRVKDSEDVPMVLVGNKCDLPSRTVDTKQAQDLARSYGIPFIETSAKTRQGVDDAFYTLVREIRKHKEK
- EXPERIMENTAL_PROTOCOL: KRas binding assay (TR-FRET tracer displacement), KRas G13D
- CONDITION: single point, 10 nM compound, TR-FRET

[
  {
    "COMPOUND": "CCc1c(F)ccc2cc(O)cc(-c3ncc4c(N5CCC[C@]6(C5)C[C@H](O)C6)nc(OC[C@@]56CCCN5[C@H](COC(=O)N(C)C)CC6)nc4c3F)c12",
    "UNIT_DESCRIPTOR": "%",
    "inhibition at 0.01 µM": 90
  },
  {
    "COMPOUND": "CCc1c(F)ccc2cc(O)cc(-c3ncc4c(N5CCC[C@@]6(CCO6)C5)nc(OCC5(CN(C)C)CC5)nc4c3F)c12",
    "UNIT_DESCRIPTOR": "%",
    "inhibition at 0.01 µM": 96
  },
  {
    "COMPOUND": "CCc1c(F)ccc2cc(O)cc(-c3ncc4c(N5CCCCn6nc(C(=O)N7CCOCC7)cc6C5)nc(OC[C@@]56CCCN5C[C@H](F)C6)nc4c3F)c12",
    "UNIT_DESCRIPTOR": "%",
    "inhibition at 0.01 µM": 90
  },
  {
    "COMPOUND": "CCc1c(F)ccc2cc(O)cc(-c3ncc4c(N5CCC(O)C(F)(F)CC5)nc(OC[C@@]56CCCN5C[C@H](F)C6)nc4c3F)c12 (some centres unmarked)",
    "UNIT_DESCRIPTOR": "%",
    "inhibition at 0.01 µM": 93
  },
  {
    "COMPOUND": "CCc1c(F)ccc2cc(O)cc(-c3ncc4c(N5CCC[C@@](C)(O)C5)nc(OC[C@@]56CCCN5[C@H](COC(=O)N5CCCCC5)CC6)nc4c3F)c12",
    "UNIT_DESCRIPTOR": "%",
    "inhibition at 0.01 µM": 93
  }
]

* * *

- SUBJECT_OF_TEST: KRas^G12R (Homo sapiens, UniProt P01116, G12R)
- Construct: Biotinylated KRas (corresponding to amino acids 1-169, produced at Accelegan Inc.); biotin (biotinylated); purchased Accelegan Inc
- Sequence (P01116 1-169 isoform P01116-2 G12R): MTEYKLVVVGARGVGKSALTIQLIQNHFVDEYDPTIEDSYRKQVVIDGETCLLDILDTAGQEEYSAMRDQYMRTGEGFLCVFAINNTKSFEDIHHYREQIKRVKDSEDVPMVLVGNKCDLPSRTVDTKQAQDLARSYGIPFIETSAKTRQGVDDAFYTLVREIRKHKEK
- EXPERIMENTAL_PROTOCOL: KRas binding assay (TR-FRET tracer displacement), KRas G12R

[
  {
    "MOLECULE": "CCc1c(F)ccc2cc(O)cc(-c3ncc4c(N5CCC[C@@](C)(O)C5)nc(OC[C@@]56CCCN5[C@H](COC)CC6)nc4c3F)c12 [Example 826]",
    "SUBJECT_OF_TEST": "KRas^G12R (Homo sapiens, UniProt P01116, G12R)",
    "INEQUALITY_SYMBOL": "<",
    "IC50, nM": 2
  },
  {
    "MOLECULE": "CCc1c(F)ccc2cc(O)cc(-c3ncc4c(NCc5cc(C(=O)N(C)C)nn5C5CCS(=O)(=O)C5)nc(OC[C@@]56CCCN5C[C@H](F)C6)nc4c3F)c12 (single isomer, unassigned) [Example 694]",
    "SUBJECT_OF_TEST": "KRas^G12R (Homo sapiens, UniProt P01116, G12R)",
    "INEQUALITY_SYMBOL": "=",
    "IC50, nM": 38
  },
  {
    "MOLECULE": "CCc1c(F)ccc2cc(O)cc(-c3ncc4c(N5CCC[C@@](C)(O)C5)nc(OCC56CNCCC5C6)nc4c3F)c12 (stereo partly drawn) [Example 697]",
    "SUBJECT_OF_TEST": "KRas^G12R (Homo sapiens, UniProt P01116, G12R)",
    "INEQUALITY_SYMBOL": "=",
    "IC50, nM": 7
  },
  {
    "MOLECULE": "CCc1c(F)ccc2cc(O)cc(-c3ncc4c(N5CCOCC6(CNC(=O)N6)C5)nc(OC[C@@]56CCCN5C[C@H](F)C6)nc4c3F)c12 (stereo partly drawn) [Example 898]",
    "SUBJECT_OF_TEST": "KRas^G12R (Homo sapiens, UniProt P01116, G12R)",
    "INEQUALITY_SYMBOL": "<",
    "IC50, nM": 2
  },
  {
    "MOLECULE": "CCc1c(F)ccc2cc(O)cc(-c3ncc4c(N5CCCn6nc(S(N)(=O)=O)cc6C5)nc(OC[C@@]56CCCN5C[C@H](F)C6)nc4c3F)c12 [Example 661]",
    "SUBJECT_OF_TEST": "KRas^G12R (Homo sapiens, UniProt P01116, G12R)",
    "INEQUALITY_SYMBOL": "=",
    "IC50, nM": 699
  },
  {
    "MOLECULE": "CCc1c(F)ccc2cc(O)cc(-c3ncc4c(NCc5cc(C(=O)N(C)C)nn5[C@H]5C[C@H](O)C5)nc(OC[C@@]56CCCN5C[C@H](F)C6)nc4c3F)c12 [Example 682]",
    "SUBJECT_OF_TEST": "KRas^G12R (Homo sapiens, UniProt P01116, G12R)",
    "INEQUALITY_SYMBOL": "=",
    "IC50, nM": 541
  },
  {
    "MOLECULE": "Cc1cc2[nH]nnc2c(-c2ncc3c(N4CCC[C@@](C)(O)C4)nc(OCC45CCCN4CCC5)nc3c2F)c1C [Example 734]",
    "SUBJECT_OF_TEST": "KRas^G12R (Homo sapiens, UniProt P01116, G12R)",
    "INEQUALITY_SYMBOL": "=",
    "IC50, nM": 20600
  },
  {
    "MOLECULE": "Cc1cc2[nH]nnc2c(-c2ncc3c(N4CC5C(=O)NC(=O)C5C4)nc(OCC45CCCN4CCC5)nc3c2F)c1C (stereo not drawn) [Example 833]",
    "SUBJECT_OF_TEST": "KRas^G12R (Homo sapiens, UniProt P01116, G12R)",
    "INEQUALITY_SYMBOL": "=",
    "IC50, nM": 9160
  },
  {
    "MOLECULE": "CCc1c(F)ccc2cc(O)cc(-c3ncc4c(N5CCC[C@@](C)(O)C5)nc(OC[C@@]56CCCN5C[C@H](F)CC6)nc4c3F)c12 [Example 815]",
    "SUBJECT_OF_TEST": "KRas^G12R (Homo sapiens, UniProt P01116, G12R)",
    "INEQUALITY_SYMBOL": "=",
    "IC50, nM": 4
  }
]
